measured-on: recombinant human survivin (human, UniProt O15392)
Sequence (O15392 whole entry): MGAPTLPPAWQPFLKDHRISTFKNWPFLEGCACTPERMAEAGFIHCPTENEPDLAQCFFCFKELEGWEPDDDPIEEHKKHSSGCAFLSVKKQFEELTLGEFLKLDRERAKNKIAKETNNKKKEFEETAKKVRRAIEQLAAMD
test-summary: quartz crystal microbalance
No end group written: not given here.
assay-readout: Kd

Study these solved cases before continuing.
LCNMDNKD-NH2 [INC_(23-30)] = 117 nM
GPIHLLEL-NH2 [INC_(7-14)] = 214 nM
LVWLEEIQ-NH2 [INC_(31-38)] = 108 nM
DNKDLVWL-NH2 [INC_(27-34)] = 255 nM
DQKLMEF-NH2 [INC_(16-22)] = 91.4 nM

What the record says about EEAERMFTR-NH2 [INC_(39-47)] : Kd is 135 nM

Hello, the source for this data is paper PMC7156834, in case you need it.
